Biological target: nucleolin (NCL) (Homo sapiens, UniProt P19338 1-710)
Sequence (P19338 whole entry): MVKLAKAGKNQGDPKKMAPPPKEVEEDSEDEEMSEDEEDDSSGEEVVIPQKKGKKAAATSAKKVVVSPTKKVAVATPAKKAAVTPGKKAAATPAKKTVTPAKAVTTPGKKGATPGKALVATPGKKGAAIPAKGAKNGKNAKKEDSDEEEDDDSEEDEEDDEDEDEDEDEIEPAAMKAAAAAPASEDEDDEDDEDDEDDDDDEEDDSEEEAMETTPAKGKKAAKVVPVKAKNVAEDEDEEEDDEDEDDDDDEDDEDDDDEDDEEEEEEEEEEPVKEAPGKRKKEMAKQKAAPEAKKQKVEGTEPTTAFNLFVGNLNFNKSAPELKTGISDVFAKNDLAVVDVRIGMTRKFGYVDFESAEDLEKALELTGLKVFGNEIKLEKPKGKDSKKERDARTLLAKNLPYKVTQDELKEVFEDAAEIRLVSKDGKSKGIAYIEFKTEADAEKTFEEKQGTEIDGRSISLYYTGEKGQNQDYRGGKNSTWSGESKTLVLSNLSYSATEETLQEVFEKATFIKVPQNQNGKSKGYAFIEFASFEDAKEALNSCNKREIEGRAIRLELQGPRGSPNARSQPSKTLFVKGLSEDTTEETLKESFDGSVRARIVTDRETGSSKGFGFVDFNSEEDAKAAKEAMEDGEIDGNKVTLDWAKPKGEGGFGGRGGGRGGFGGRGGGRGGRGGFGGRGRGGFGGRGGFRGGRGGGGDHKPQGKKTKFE
Experiment: SPR; 150 mM KCl; SPR: 10 mM HEPES, 150 mM KCl, 3 mM EDTA, pH 7.4, NCL on CM5 chip, temperature not stated; EMSA: 5x binding buffer listed as 40 mM Tris, 30 mM KCl, 1 mM MgCl2, 1 mM DTT, pH 8.0, 200 nM probe, room temperature 25 min, gel with 20 mM KCl at 4 C
Conditions: protein: recombinant; parallel G4
EXPERIMENTAL ENDPOINT: Kd (nM)
Use nM as the unit, but write only the number.

q: I am curious: what Kd value has been reported for GUUAGGGUUUAUGGGAUUG (structured_RNA) [Apt-3] ?
a: 20.4

The reported numbers originate from paper PMC10531985.
